test system: reconstructed human epidermis (RHE) samples; experiment: 3D in vitro reconstructed human epidermis (RHE) model, viable epidermal thickness measured with the machine-learning model after 4-day treatment; settings: human, 4 days, 10 uM
ENDPOINT NAME: Normalized thickness
The response must contain the number and no unit.

Query `C[C@@H]1CCN(C(=O)CC#N)C[C@@H]1N(C)c1ncnc2[nH]ccc12` on reconstructed human epidermis (RHE) samples; Normalized thickness returned: 0.82

Tested on reconstructed human epidermis (RHE) samples, the item `C=CC(=O)Nc1cc(Nc2nccc(-c3cn(C)c4ccccc34)n2)c(OC)cc1N(C)CCN(C)C` showed Normalized thickness equal to 0.76

Assay reconstructed human epidermis (RHE) samples, sample `C=CC(=O)N1CCC(Oc2cc3c(Nc4ccc(Cl)c(Cl)c4F)ncnc3cc2OC)CC1` , Normalized thickness read: 0.73

Cited source for all entries: patent US20230162361A1
